Sourced from ChEMBL document CHEMBL1129036

- Assay Target: DNA topoisomerase 1 (Homo sapiens) (UniProt P11387)
- Sequence (whole entry): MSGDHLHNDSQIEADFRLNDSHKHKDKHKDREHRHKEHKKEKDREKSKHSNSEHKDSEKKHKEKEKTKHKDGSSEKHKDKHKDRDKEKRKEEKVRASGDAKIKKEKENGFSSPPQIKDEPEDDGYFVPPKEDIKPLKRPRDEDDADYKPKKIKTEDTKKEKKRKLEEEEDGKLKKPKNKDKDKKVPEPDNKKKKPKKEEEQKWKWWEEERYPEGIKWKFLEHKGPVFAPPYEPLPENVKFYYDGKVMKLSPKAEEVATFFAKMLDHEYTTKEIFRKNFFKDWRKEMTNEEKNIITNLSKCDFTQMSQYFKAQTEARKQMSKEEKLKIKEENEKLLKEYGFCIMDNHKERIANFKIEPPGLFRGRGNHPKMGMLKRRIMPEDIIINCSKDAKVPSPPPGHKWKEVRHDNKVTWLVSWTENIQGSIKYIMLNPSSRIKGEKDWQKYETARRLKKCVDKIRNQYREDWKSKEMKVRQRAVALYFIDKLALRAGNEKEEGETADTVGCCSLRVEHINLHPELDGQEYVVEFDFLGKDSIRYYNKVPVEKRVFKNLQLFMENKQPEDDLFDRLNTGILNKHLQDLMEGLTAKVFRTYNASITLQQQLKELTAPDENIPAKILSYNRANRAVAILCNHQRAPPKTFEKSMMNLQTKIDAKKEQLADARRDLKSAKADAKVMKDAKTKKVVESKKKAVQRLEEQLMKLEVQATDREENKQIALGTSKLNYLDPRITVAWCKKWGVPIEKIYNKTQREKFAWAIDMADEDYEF
- Test Details: Topoisomerase I […] was evaluated by Fluorescence assay using Ethidium Bromide before heat denaturation of pBR322 DNA at concentration 100 uM
- Measurement Setup: Escherichia coli
# key: entry, value: Change
Field: numeric (%). Do not append units.

>>> readout_number("COC(=O)c1cc(NC(=O)Cn2cc(C3=C(c4c[nH]c5ccccc45)C(=O)NC3=O)c3ccccc32)cn1C")
6
>>> readout_number("CN(C)CCCNC(=O)c1cc(NC(=O)Cn2cc(C3=C(c4c[nH]c5ccccc45)C(=O)NC3=O)c3ccccc32)cn1C")
6
>>> readout_number("CN(C)CCCNC(=O)c1cc(NC(=O)c2cc(NC(=O)c3cc(NC(=O)Cn4cc(C5=C(c6c[nH]c7ccccc67)C(=O)NC5=O)c5ccccc54)cn3C)cn2C)cn1C")
24
>>> readout_number("CN(C)CCCNC(=O)c1cc(NC(=O)c2cc(NC(=O)Cn3cc(C4=C(c5c[nH]c6ccccc56)C(=O)NC4=O)c4ccccc43)cn2C)cn1C")
21
>>> readout_number("COC(=O)c1cc(NC(=O)c2cc(NC(=O)Cn3cc(C4=C(c5c[nH]c6ccccc56)C(=O)NC4=O)c4ccccc43)cn2C)cn1C")
2

State its Change for this compound: `COC(=O)c1cc(NC(=O)c2cc(NC(=O)c3cc(NC(=O)Cn4cc(C5=C(c6c[nH]c7ccccc67)C(=O)NC5=O)c5ccccc54)cn3C)cn2C)cn1C`
33

---

- Assay Target: DNA topoisomerase 1 (Homo sapiens)
- Test Details: Topoisomerase I […] was evaluated by Fluorescence assay using Ethidium Bromide before heat denaturation of pBR322 DNA at concentration 25 uM
- Measurement Setup: Escherichia coli; at 25 µM
Measure: Change (%)
Field: numeric (%). Do not append units.

>>> readout_number("CN(C)CCCNC(=O)c1cc(NC(=O)c2cc(NC(=O)Cn3cc(C4=C(c5c[nH]c6ccccc56)C(=O)NC4=O)c4ccccc43)cn2C)cn1C")
2
>>> readout_number("CN(C)CCCNC(=O)c1cc(NC(=O)c2cc(NC(=O)c3cc(NC(=O)Cn4cc(C5=C(c6c[nH]c7ccccc67)C(=O)NC5=O)c5ccccc54)cn3C)cn2C)cn1C")
28
>>> readout_number("COC(=O)c1cc(NC(=O)c2cc(NC(=O)c3cc(NC(=O)Cn4cc(C5=C(c6c[nH]c7ccccc67)C(=O)NC5=O)c5ccccc54)cn3C)cn2C)cn1C")
11
>>> readout_number("CN(C)CCCNC(=O)c1cc(NC(=O)Cn2cc(C3=C(c4c[nH]c5ccccc45)C(=O)NC3=O)c3ccccc32)cn1C")
1

State its Change for this molecule: `COC(=O)c1cc(NC(=O)c2cc(NC(=O)Cn3cc(C4=C(c5c[nH]c6ccccc56)C(=O)NC4=O)c4ccccc43)cn2C)cn1C`
5

State its Change for this molecule: `COC(=O)c1cc(NC(=O)Cn2cc(C3=C(c4c[nH]c5ccccc45)C(=O)NC3=O)c3ccccc32)cn1C`
2

---

- Assay Target: DNA topoisomerase 1 (Homo sapiens)
- Test Details: Topoisomerase I […] was evaluated by Fluorescence assay using Ethidium Bromide before heat denaturation of pBR322 DNA at concentration 50 uM
- Measurement Setup: Escherichia coli
Note to self: values exactly at 10% are 1. So Change at or above 10% is 1, below is 0.

Quick check, Change >= 10%? `COC(=O)c1cc(NC(=O)c2cc(NC(=O)Cn3cc(C4=C(c5c[nH]c6ccccc56)C(=O)NC4=O)c4ccccc43)cn2C)cn1C`
0

Quick check, Change >= 10%? `CN(C)CCCNC(=O)c1cc(NC(=O)Cn2cc(C3=C(c4c[nH]c5ccccc45)C(=O)NC3=O)c3ccccc32)cn1C`
0

Quick check, Change >= 10%? `COC(=O)c1cc(NC(=O)c2cc(NC(=O)c3cc(NC(=O)Cn4cc(C5=C(c6c[nH]c7ccccc67)C(=O)NC5=O)c5ccccc54)cn3C)cn2C)cn1C`
1

Quick check, Change >= 10%? `COC(=O)c1cc(NC(=O)Cn2cc(C3=C(c4c[nH]c5ccccc45)C(=O)NC3=O)c3ccccc32)cn1C`
0

Quick check, Change >= 10%? `CN(C)CCCNC(=O)c1cc(NC(=O)c2cc(NC(=O)c3cc(NC(=O)Cn4cc(C5=C(c6c[nH]c7ccccc67)C(=O)NC5=O)c5ccccc54)cn3C)cn2C)cn1C`
1

Quick check, Change >= 10%? `CN(C)CCCNC(=O)c1cc(NC(=O)c2cc(NC(=O)Cn3cc(C4=C(c5c[nH]c6ccccc56)C(=O)NC4=O)c4ccccc43)cn2C)cn1C`
1

---

- Assay Target: DNA topoisomerase 1 (Homo sapiens) (UniProt P11387)
- Sequence (whole entry): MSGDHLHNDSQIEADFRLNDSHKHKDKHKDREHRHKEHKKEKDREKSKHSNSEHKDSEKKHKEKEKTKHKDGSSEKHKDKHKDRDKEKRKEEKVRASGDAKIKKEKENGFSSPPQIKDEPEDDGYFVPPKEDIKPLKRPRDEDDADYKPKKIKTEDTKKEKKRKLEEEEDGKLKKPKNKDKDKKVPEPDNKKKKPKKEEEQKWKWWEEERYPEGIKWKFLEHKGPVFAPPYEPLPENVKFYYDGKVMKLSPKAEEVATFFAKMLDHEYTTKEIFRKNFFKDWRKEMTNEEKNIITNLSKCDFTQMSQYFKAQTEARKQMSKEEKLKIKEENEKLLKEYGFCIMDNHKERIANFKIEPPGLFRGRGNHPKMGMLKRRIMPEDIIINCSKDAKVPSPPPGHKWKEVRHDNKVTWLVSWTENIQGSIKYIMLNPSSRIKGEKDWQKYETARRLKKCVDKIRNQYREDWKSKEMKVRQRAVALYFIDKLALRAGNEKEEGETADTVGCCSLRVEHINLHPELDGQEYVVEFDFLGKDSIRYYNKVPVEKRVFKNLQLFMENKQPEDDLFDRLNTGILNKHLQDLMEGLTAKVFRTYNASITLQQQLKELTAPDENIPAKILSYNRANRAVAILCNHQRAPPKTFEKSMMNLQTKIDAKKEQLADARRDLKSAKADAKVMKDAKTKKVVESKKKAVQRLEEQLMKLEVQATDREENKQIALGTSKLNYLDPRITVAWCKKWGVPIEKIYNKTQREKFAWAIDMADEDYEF
- Test Details: Topoisomerase I DNA relaxation activity was evaluated by Agarose Gel Electrophoresis test at concentration 25 uM
- Measurement Setup: Escherichia coli; at 25 µM
# key: entry, value: inhibition

>>> result("CN(C)CCCNC(=O)c1cc(NC(=O)c2cc(NC(=O)c3cc(NC(=O)Cn4cc(C5=C(c6c[nH]c7ccccc67)C(=O)NC5=O)c5ccccc54)cn3C)cn2C)cn1C")
"25%"

State its inhibition for this compound: `COC(=O)c1cc(NC(=O)Cn2cc(C3=C(c4c[nH]c5ccccc45)C(=O)NC3=O)c3ccccc32)cn1C`
0%

State its inhibition for this compound: `CN(C)CCCNC(=O)c1cc(NC(=O)c2cc(NC(=O)Cn3cc(C4=C(c5c[nH]c6ccccc56)C(=O)NC4=O)c4ccccc43)cn2C)cn1C`
< 10%

---

- Assay Target: UniProt:P11387
- Sequence (whole entry): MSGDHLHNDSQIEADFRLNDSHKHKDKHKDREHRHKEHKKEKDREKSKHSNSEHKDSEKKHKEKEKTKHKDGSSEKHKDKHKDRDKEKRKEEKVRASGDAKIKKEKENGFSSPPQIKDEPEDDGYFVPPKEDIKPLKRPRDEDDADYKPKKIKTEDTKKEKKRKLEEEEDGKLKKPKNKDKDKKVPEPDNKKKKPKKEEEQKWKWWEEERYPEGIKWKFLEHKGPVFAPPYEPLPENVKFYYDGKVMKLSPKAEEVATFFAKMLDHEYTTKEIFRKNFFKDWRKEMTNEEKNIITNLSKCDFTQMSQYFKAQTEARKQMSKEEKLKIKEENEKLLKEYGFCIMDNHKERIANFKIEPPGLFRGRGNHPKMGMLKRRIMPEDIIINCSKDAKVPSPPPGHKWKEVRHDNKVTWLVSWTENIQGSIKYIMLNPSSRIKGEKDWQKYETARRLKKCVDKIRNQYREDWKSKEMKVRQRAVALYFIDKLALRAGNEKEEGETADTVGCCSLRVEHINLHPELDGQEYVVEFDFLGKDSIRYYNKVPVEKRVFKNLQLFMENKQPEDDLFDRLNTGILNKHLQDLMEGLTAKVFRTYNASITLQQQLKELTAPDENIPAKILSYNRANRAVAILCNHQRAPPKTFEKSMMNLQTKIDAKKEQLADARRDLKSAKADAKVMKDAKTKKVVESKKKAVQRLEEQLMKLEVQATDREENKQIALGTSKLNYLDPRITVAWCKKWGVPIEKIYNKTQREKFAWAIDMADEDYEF
- Test Details: Topoisomerase I DNA relaxation activity was evaluated by Fluorescence assay using Ethidium Bromide before heat denaturation of pBR322 DNA at concentration 100 uM
- Measurement Setup: Escherichia coli
# key: entry, value: Change
Field: numeric (%). Do not append units.

Example cases with answers are listed next.
>>> readout_number("CN(C)CCCNC(=O)c1cc(NC(=O)Cn2cc(C3=C(c4c[nH]c5ccccc45)C(=O)NC3=O)c3ccccc32)cn1C")
6
>>> readout_number("CC[C@@]1(O)C(=O)OCc2c1cc1n(c2=O)Cc2cc3ccccc3nc2-1 [CAMPTOTHECIN]")
3
>>> readout_number("CN(C)CCCNC(=O)c1cc(NC(=O)c2cc(NC(=O)Cn3cc(C4=C(c5c[nH]c6ccccc56)C(=O)NC4=O)c4ccccc43)cn2C)cn1C")
18

Now look at this entry.
State its Change for this molecule: `COC(=O)c1cc(NC(=O)c2cc(NC(=O)Cn3cc(C4=C(c5c[nH]c6ccccc56)C(=O)NC4=O)c4ccccc43)cn2C)cn1C`
1
